Counter-ions that a name gives are not always drawn.
property: melting point (°C)
One number for each entry, in °C.

Recorded melting point, per entry:
Would you mind telling me what melting point value was observed for FC(F)(F)Cc1cc2c(N3C[C@@H]4CCN(Cc5ccccc5)C[C@@H]43)ncnc2s1 (single isomer, unassigned) [Compound 30] ? 140

Also need O=S(=O)(c1ccccc1)N1CC[C@@H]2CN(c3ncnc4sc(CC(F)(F)F)cc34)CC[C@@H]21 (as salt: HCl) (hydrate or solvate) [Compound 16] , thanks. 152

// same read-out, input: O=C([C@@H]1CC2(CC2)CN1)N1CC[C@H]2CN(c3ncnc4sc(CC(F)(F)F)cc34)C[C@H]2C1 (single isomer, unassigned) [Compound 82] 105

// next entry
Consider the compound shown here: FC(F)(F)Cc1cc2c(N3C[C@@H]4CN(Cc5ccccc5)C[C@@H]43)ncnc2s1 [Compound 29] What is its recorded melting point? 134
